- experimental-system: 5HT2C receptors (Homo sapiens)
- Sequence (P28335 33-458): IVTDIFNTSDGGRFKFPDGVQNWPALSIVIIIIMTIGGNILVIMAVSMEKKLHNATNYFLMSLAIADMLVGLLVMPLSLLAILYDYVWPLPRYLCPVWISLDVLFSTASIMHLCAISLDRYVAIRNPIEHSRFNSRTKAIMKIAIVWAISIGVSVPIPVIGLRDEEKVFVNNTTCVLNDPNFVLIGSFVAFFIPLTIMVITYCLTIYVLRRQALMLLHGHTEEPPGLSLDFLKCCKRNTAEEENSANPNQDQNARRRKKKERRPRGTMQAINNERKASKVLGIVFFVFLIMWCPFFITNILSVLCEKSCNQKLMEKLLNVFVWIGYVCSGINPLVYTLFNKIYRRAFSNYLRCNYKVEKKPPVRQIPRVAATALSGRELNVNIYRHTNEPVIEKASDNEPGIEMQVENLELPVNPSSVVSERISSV
- protocol: Human 5-HT2C functional assay in CHO-K1 cells (calcium flux, FLIPR)
- Assay type: cell-based
- Design: expressed in transfected cells; host or cells: CHO-K1 cells
The compounds listed here are annotated with their pEC50.
Note: pEC50 values are expressed as the negative base-10 logarithm of concentration in M.

c1ccc2c(c1)OCC[C@@H]1CNCCN21	9.00
CCN1CCN2c3ccccc3OCC[C@H]2C1	7.70
CN1CCN2c3ccccc3NC(=O)CC2C1 (centres unmarked)	7.10
COc1cccc2c1OCC[C@H]1CNCCN21	7.70
Fc1ccc2c(c1)OCC[C@@H]1CNCCN21	9.00

// lookup pEC50 for CN1CCN2c3cccc(F)c3NC(=O)CC2C1 (centres unmarked)
7.52

Would you mind doing Fc1ccc2c(c1)OCC[C@H]1CNCCN21 as well?
8.70

Would you mind doing Cc1ccc2c(c1)OCC[C@H]1CNCCN21 as well?
8.00

Would you mind doing Cc1cccc2c1N1CCNCC1CC(=O)N2 (centres unmarked) as well?
8.22

Would you mind doing Brc1cccc2c1OCC[C@H]1CNCCN21 as well?
8.70

Would you mind doing CN1CCN2c3ccccc3CCCC2C1 (centres unmarked) as well?
8.52
